# runDescription: yeast display, Sf9 membrane polyspecificity reagent, FACS + sequencing; frameworks hold sequencing errors
outcomeMeasure: polyreactivity (PSR sort gate)

As a guide, the following entries are already answered.
{"residueString": "QVQLGESGGGLVQAGGSLRLSCAASGRILSVYVMGWYRQAPGKERELVAAIRRGGYTYYADSVKGRFTISRDNAKNTVYLQMNSLKQEDTAVYYCNARQRPPPYYYWGQGTQLTVSS", "polyreactivity (PSR sort gate)": "high polyreactivity"}
{"residueString": "QVQLVESGGGLVQAGGSLRLSCAASGSIFYVYVMGWYRQAPGKERELVAAIDTGGGDTYYADSVKGRFTISRDNAKNTVYLQMNSLKPEDTAVYYCAAELYDYGDLYYSEYDYWGQGTQVTVSS", "polyreactivity (PSR sort gate)": "low polyreactivity"}
{"residueString": "QVQLVESGGGLVQAGVILRLSCAASGRIFIPYAMGWYIQAPGKERELVAAISYRGGSTYYADSVKGRFTISRDNAKNTVYLQMNSLKPEDTAVYYCANYDYWGQGTQVTVSS", "polyreactivity (PSR sort gate)": "high polyreactivity"}
{"residueString": "QVQLVESGGGLVQAGGSLRLSCAASGRTYGFNVMGWYRQAPGKERELVAAISWSGGSTYYADSVKGRFTISRDNEKNTVYLQMNSLKPEDTAVYYCNKRYVHRYGYWGQGTQVTVSS", "polyreactivity (PSR sort gate)": "low polyreactivity"}

Field: next sequence
Can you look up the measured polyreactivity (PSR sort gate) of `QVQLVESGGGLVQAGGSLRLSCAGSGSTFKKYPMGWYREATGKEREFVAAISRGGRTYYADSVKGRFTSSRDNAKTTVYLQMNSLNPEDTAVYYCAADTFAYQEVYYWGQGTQVTVSS` for me?
high polyreactivity

----------
# runDescription: yeast display, Sf9 membrane polyspecificity reagent, FACS + sequencing; frameworks hold sequencing errors
outcomeMeasure: polyreactivity (PSR sort gate)

Example results:
{"residueString": "QVQLVESGGGLVQAGGSLRLSCAASGNTFEYYVMGWYRQAPGKERELVAAITWSTGSTYYADSVKGRFTISRDNAKNTVYLQMNSLKPEDTAVYYCNAAYVYYYPHYRYAPTAVDYDYWGQGTQVTVSS", "obsValue": "low polyreactivity"}
{"residueString": "QVQLVESGGGLVQAGGSLRLSCAASGFIFQPYAMGWYRQAPVKERELVAAITSRGGRTYYADSVKGRFTISRDNAKNTVYLQMNSLKPEDTAVYYCNADIYASEYYYWGQGTQVTVSS", "obsValue": "low polyreactivity"}
{"residueString": "QVQLVESGGGLVQAGGSLRLSCAASGFTIDGYAMGWYRQAPGKERELVAAIRRGGRTKYADSVKGRFTISRDNAKNTVYLQLNSLKPEDTAVYYCNAVTRGYYHEMEYWGQGTQVTVSS", "obsValue": "high polyreactivity"}
{"residueString": "QVQLVESGGGLVQAGGSLRLSCAASGRIFFYNVMGWYRQAHGKERELVAAITTIGGSTYYADSVKGRFTISRDNAMNTVYLQMNSLKPEDTAVYYCAAGWVTNSDGMDYWGQGTQVTVSS", "obsValue": "low polyreactivity"}
{"residueString": "QVQLVESGGGLVQAGGSLRLSCAASGFSFRVYTMGWYRQAPGKERELVAAISYRGGRTYYADTVKGRFTISRDNAKNNVYLQMNSLKPEDSALYYCAATAIYPSAWRMDYWGQGTLVTVSS", "obsValue": "high polyreactivity"}
{"residueString": "QVQLVESWGGLVQAGGSLRLSCAASGFIMQWYAMGWDRQAPGKERELVAGISSGTSTYYADSVKGRFTISRDNAKNTVYFQMNSLKAEDTAVYYCTWFVFDPEDYWGQGTQVTVSS", "obsValue": "low polyreactivity"}
{"residueString": "QVQLVESGVGLVQAGGSLRLSCAASGSIFYPYAMGWYRQAPGKERELVAAISSGGRTYDADSVKGRFTISRDNAKNTVYLQMNSLKPEDTAVSYCAARPKAYGRPPGYYWGQGTQVTVSS", "obsValue": "high polyreactivity"}
{"residueString": "HVQLLESGGGLVQAGGSLRLSCAASGITFQFYPKGWYRQAPGKERELVAAISYSGGSTYYADSVKGRFTISRDNAKNTVYLQMNSLKAADTAVYYCAAVSYSSRGNYWGQGTQVTVSS", "obsValue": "high polyreactivity"}

Name the recorded polyreactivity (PSR sort gate) for `QVQLVDSGGGLVQAGGSLRLSCSASGSILGAYAMGWYRQSPGKERELVASISWSGGSTYYADSVKGRFTISRDNAKNTVYLQMNSLKPEDTAGYYCAASGIRYWLPYDYWGQGTQVTVSS` .
high polyreactivity

----------
# runDescription: yeast display, Sf9 membrane polyspecificity reagent, FACS + sequencing; frameworks hold sequencing errors
outcomeMeasure: polyreactivity (PSR sort gate)

In the examples that follow, each entry is paired with its recorded polyreactivity (PSR sort gate).
{"residueString": "QVQLVESGGGLVQAGGSLRLSCAASGRIFYYYDMGWYRQAPGKERELVAAINYSGGSTYYADSVKGRFTISRDNAKNTVYLQMNSLKPEDTAVYYCAADGYYYYSYGTTDQDDYWGQGTQVTVSS", "polyreactivity (PSR sort gate)": "low polyreactivity"}
{"residueString": "QVQHVKSGGGLVQAGGSLRLSCAASGSIFGYNTMGWYRQAPGKERELVATITYRGGSTYYADSVKGRFTISRDNAKNTVYLQMNSLKPEDTAVYYCARRVTRYPYTTWDSAGDYWGQGTQVTVSS", "polyreactivity (PSR sort gate)": "high polyreactivity"}
{"residueString": "QVHLVESGGGLVQAGGSLRLSFAASGSIFYFNAMGWYRQAPGKERELVAAINYSGGSTYYADSVKGRFTISRDNAKNTVYLQRNSLKPEDTAVYYCAAVTYFGWYPYRMEYWGQGTQVTVSS", "polyreactivity (PSR sort gate)": "high polyreactivity"}
{"residueString": "QVQLVESGGGLVQAGGSLRLSCAASGSTFKVYAMGWYRQAPGKESELVATISKSGSTYADSVKGRFTISRDNAKNTVYLQMNSLKPEDTAVYYCARVKYSGVVYKYDYWGQGTQVTVSS", "polyreactivity (PSR sort gate)": "high polyreactivity"}
{"residueString": "QVQLLESGGGLVKAGGSLRLSCAASGFTFYRYAMGWYRQAPGKERELVATINYSGGGTYYADSVKGRFTISRDNAKHTVYLQMNSLKPEDTAVYDCAAEDFDYAVLYDYWGQGTQVTVSS", "polyreactivity (PSR sort gate)": "high polyreactivity"}

polyreactivity (PSR sort gate) for `QVQLVQSGAGLVQAGGSLRLSCAPSGRTFWRYPMGLYRQAPGKERELVASISARGGSTYYADSVKGRFTISRDNAKNTVYLQMNSLKPEDTAVYYCKRQSWFTVGGFTYRYDYWGQGTQVTVSS` ?
high polyreactivity

Param item: `QVQLVESGGGLFQAGGSLRLSCAASGSIFRYNTMGWYRHAPGKESELVARISSGGSTYYADSVKGRFTISRDNAKNTVYLQMNSLKPEDTAVYYCAAVSRHRGWDRYYWGQGTQVTVSS`
high polyreactivity

Param item: `QVQLVESGGGLDQAGGSLRLSCAASGLTFWYYAMGWYRQAPGKERELVVAISWSGGRTSYADSVKGRFTISRDNAKNTVYLQMNSLKPEDTAVYYCAADKDFRTGEYEYDYWGQGTQVTVSS`
high polyreactivity

Check `QVQLVESGGGLVQAGGSLRLSCAASGRTFYYNAMGWYRQAPGKERELVAAITYSGGSTYYADSVKGRFTISRDNAKNTVYLQMNSLKPEDTAVYYCAADVYRPAGNWEHYYWGQGNQVTVSS` too.
low polyreactivity

Try this sequence too: `QVQLVESGGRLVQAGGSLRLSCASSGRTFYPNAMGWYRHAPGKESELVAGIRSSGDSTYYADSVKGRFTISRDNAKNTVYLQMNSLKPEDTAVYYCNRDLTPSYDYWGQCTQVTVSS`
low polyreactivity

Another sequence to check: `QVQLVESGGGLVQAGGSLRLSCAASGRIFTVNAMGGYRQAPGKERELVAAITFSGANTYYADSVKGRFTISRDNAKNTVFLQMNSLKPEDTAVYYCAGDPPNGAEYYWGQGTQVTVSS`
high polyreactivity

----------
# runDescription: yeast display, Sf9 membrane polyspecificity reagent, FACS + sequencing; frameworks hold sequencing errors
outcomeMeasure: polyreactivity (PSR sort gate)

Example entries begin here.
{"residueString": "QVQLVESGGGLVQAGGSLRLSCAASGRIFGWYAMGWYRQAPGKERELVAAISRSGGSTYYADSVKGRFTISRDNAKNTVYLQMNSLKPEDTAVCYCAAAFSLGMYWGQGTQVTVSS", "obsValue": "high polyreactivity"}
{"residueString": "QVQLVESGGGLVQAGGSLRLSCAASGRTFSRYAMGWYRQAPGKERELVAAISYSGGRTYYADSVKGRFTISRDNAKNTVYLQMNSLKPEDTAVYYCAASWPGHTVDYDYWGQGTQVTVSS", "obsValue": "high polyreactivity"}
{"residueString": "QVQHVESGGGLVQAGGSLRLRCAASGRTFKKYAMGWYRQAPGKAWELVAAITGSGGSTYYADSVKGRFTFSRDNAKNTVYLQMNRLKPEDTAVYYCAAYAYGVWQSQDGGNYWGQGTQVTVSS", "obsValue": "low polyreactivity"}
{"residueString": "QVQLVESGGGLVQAGGSLRLSCAASGFTIKWYTMGWYRPAPGKERELVAGISRRGGSTYYADSVKGRFTISRDNAKNTVYLEMNSLKPEDTAVYYCNVYSRTHYQTYTDDYWGQCTQVTVSS", "obsValue": "high polyreactivity"}
{"residueString": "QVQLVESGGGLVQAGGSLRLSCAASGRTINRYAMGWYRQAPGKERELVAAISTSGGTTYYADSVKGRFTISRDNAKNTVYLQMNSLKPEDTAVYYCNARALAYWGQGTQVTVSS", "obsValue": "high polyreactivity"}
{"residueString": "QVQLVESGGGLVQAGGSLRLSCPASGLIIGVYAMGWYRQEPGKERELVAAITDGGSTYYADSVKGRFTISRDNAKNTVYLQMNSLKPEDTAVYYCNAEFRSSDYDYWGQGTQVTVSS", "obsValue": "low polyreactivity"}
{"residueString": "QVQLVESGGGLVQAGGSLRLSCAASGSIFTTNTMGWYRQAPGKERELVAAISSGGGTHYADSVKGRFTISRDNAKNTVYLQMNSLKPEDTAVYYCDARSYYYEWFGDVAMYYWGQGTQVTVSS", "obsValue": "low polyreactivity"}
{"residueString": "QVQLVESGGGLVQAGGSLRLSCAASGGTFTIYAMGWYRQAPGKERELVATINRGDRTNYADSVKGRFTISRDNAKNTVYLQMNSLKPEDTAVYYCAADFYYWYRGVYFVTRNYYWGQGTQVTVSS", "obsValue": "high polyreactivity"}

I am curious: what polyreactivity (PSR sort gate) value has been reported for `QVQLVESGGGLVQAGGSLRLSCAASGSILSYYVMGWYRQAPGKERELVAAITSDGSKNYADSVKGRFTISRDNAKNTVYLQMNSLKPEDTAVYYCAAVIAWYYGVQDVYYLGLYDYWGQGTQVTVSS` ?
low polyreactivity

Another sequence to look at: `QVQLGESGGGLVQAGGSLRLSCAASGRILAKYAMGWSRQAPWKEREFVAAISYSGGSTYYADSVKGRFTISRDNAKNTVYLQMNSLKPEDTAVYYCAARYTFDRWKFGYWGQGTQVTVSS`
high polyreactivity

And for `QVQLVESGGGLVQAGGSLRLSCAASGSIFIVNVMGWYRQAPGKERELVAGITTNGGITYYADSVKGRFTISRDNAKNTVYLQMNSLKPEDTAVYYCATRSGSPSSIEMDYWGQGTQVTVSS` ?
low polyreactivity
